assay: small-molecule microarray binders of probe aNog, primary screen, biochemical, biotinylated probe, 635/667 nm fluorescence (AID 1115); settings: higher = more signal;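 further: probe is biotinylated aNog protein used at 0.15 µg/mL for 1 h at 4 C; z-score combines 667 nm fluorescence of each spot with its signal to noise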
The following molecules are listed with their measured composite z-score values.

                                   molecule       readout_type  reported_measurement
0  COC(=O)[C@H](C)NC(=O)CCC1CC(OC(=O)NCCc2ccc(F)cc2)CC2(CCCC(COC(=O)NCCCN3CCCC3=O)O2)O1 (some centres undefined)  composite z-score                  0.33
1  C[C@@H](ON=C1[C@H]2CCn3c(=O)n(-c4ccccc4)c(=O)n3[C@H]2[C@H](O)[C@@H]2O[C@H]12)c1cn([C@H](CO)Cc2ccccc2)nn1  composite z-score                -0.364
2  CCOC(=O)[C@H](Cc1ccccc1)NC(=O)CCC1CC(OC(=O)NCc2cccc3ccccc23)CC2(CCCC(COC(=O)NCCCN3CCCC3=O)O2)O1 (some centres undefined)  composite z-score                 -0.17
3  Cc1cc2c(nc1C)CCCN2CC(C)ON=C[C@@H](C)[C@H](OCc1ccccc1)C(C)C (some centres undefined)  composite z-score                0.0811
4  C#CCCCON=C1C[C@@H](O)[C@@H](O)[C@@H]2[C@@H]3C(=O)N(C4CCCCC4)C(=O)[C@@H]3CC[C@H]12  composite z-score                -0.134
5  COc1ccc(COC(=O)NN=C2C[C@@H](O)[C@@H](O)[C@@H]3[C@@H]4C(=O)N(C(C)(C)C)C(=O)[C@@H]4CC[C@H]23)cc1  composite z-score                -0.242
6  CCOC(=O)CCN1C(=O)[C@H]2[C@H]3[C@H](O)[C@H](O)CC(=NNC(=O)OCC)[C@@H]3CC[C@H]2C1=O  composite z-score                0.0234
7  Cc1ccc(S(=O)(=O)N[C@H]2COC(=O)[C@@H](C)COC(=O)[C@H](C)NC(=O)CC=C[C@H]2C)cc1  composite z-score                -0.234

Give the value of composite z-score reported for the following: `CC(C)=CCCC(C)=CCON=C1C[C@@H](O)[C@@H](O)[C@@H]2[C@@H]3C(=O)N([C@@H](C)c4ccccc4)C(=O)[C@@H]3CC[C@H]12`
-0.44

Every entry's value here was drawn from PubChem BioAssay.
